- subject.of.test: T1, FGFR2b on SNU-16 and MFM-223 cells (human, UniProt P21802 22-821)
- T1 chain: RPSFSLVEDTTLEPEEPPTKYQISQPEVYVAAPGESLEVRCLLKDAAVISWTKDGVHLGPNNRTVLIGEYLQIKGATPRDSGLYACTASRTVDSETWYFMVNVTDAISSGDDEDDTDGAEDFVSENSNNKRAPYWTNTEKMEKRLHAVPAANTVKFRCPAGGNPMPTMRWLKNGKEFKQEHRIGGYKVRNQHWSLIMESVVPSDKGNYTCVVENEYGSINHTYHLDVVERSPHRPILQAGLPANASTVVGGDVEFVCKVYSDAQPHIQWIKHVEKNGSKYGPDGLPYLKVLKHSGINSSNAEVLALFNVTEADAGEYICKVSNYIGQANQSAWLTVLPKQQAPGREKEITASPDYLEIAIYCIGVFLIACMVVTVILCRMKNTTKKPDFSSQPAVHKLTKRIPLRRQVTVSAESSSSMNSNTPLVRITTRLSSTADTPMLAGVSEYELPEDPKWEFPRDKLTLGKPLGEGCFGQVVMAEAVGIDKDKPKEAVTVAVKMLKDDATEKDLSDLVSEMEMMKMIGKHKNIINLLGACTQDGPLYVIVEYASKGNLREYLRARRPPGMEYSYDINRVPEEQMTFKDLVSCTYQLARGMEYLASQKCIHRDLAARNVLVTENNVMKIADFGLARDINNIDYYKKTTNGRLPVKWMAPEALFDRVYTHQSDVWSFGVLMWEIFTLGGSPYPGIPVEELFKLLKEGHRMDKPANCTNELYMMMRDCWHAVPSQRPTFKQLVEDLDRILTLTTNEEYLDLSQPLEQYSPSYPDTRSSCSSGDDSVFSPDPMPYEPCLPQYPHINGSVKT
- procedure.summary: cell-based or functional assay
readout.kind: IC50 (M), CellTiter-Glo cytotoxicity, MFM-223 cells, 6 days
Expressed in M, but write only the number.

binder	measured.number
mAb2-tubulysin 1ALP (antibody, V domains shown, deglycosylated; Q295 carries azido-PEG3-amine clicked to Tubulysin 1A-LP; DAR 2.1 per antibody, also called Anti FGFR2 mAb2-PEG3-N3-Tubulysin 1A-LP) VH: QVQLVESGGGVVQPGKSLRLSCAASGFTFSNYGMHWVRQTPVKGLEWVTLIWYDGSNKYYTDSVKGRFTISRDNSKNTLYLQMNSLRSEDTAVYYCAREGNWNYGHAFDIWGQGTMVTVSS VL: DIQMTQSPSTLSASVGDRVTITCRASQNIGNWLAWYQQKPGKAPNLLIYKASTLESGVPSRFSGSGSGTEFTLTISSLQPDDFATYNCQQYNSYSPTFGQGTKLEIKR	6.36e-11
mAb1-tubulysin 1ALP (antibody, human IgG4 S228P, kappa, V domains shown, deglycosylated; Q295 carries azido-PEG3-amine clicked to Tubulysin 1A-LP; DAR 2.1 per antibody, also called Anti FGFR2 mAb1-PEG3-N3-Tubulysin 1A-LP) VH: QVQLVESGGGVVQPGRSLRLSCAASGFTFSSYGMHWVRQAPGKGLEWVAVIWYDGSNKYYADSVKGRFTISRDNSKNTLYLQMNSLRAEDTAVYYCAREESSASGVDYWGQGTLVTVSS VL: EIVLTQSPGTLSLSPGERATLSCRASQSVSTRYLAWYQQKRGQAPRLLIYGASSRATGIPDRFSGSGSGTDFTLTISRLEPEDFAVYYCQEYGSSSITFGQGTRLEIKR	1.25e-10
mAb2-maytansinoid 1ALP (antibody, V domains shown, maytansinoid 1ALP (mc-VC-PAB-NMe-C3-May) linker-payload conjugated; residues not stated in Example 5; DAR 1.9 per antibody, it is written on the heavy chain only for want of a better place; also called FGFR2 maytansinoid ADC) VH: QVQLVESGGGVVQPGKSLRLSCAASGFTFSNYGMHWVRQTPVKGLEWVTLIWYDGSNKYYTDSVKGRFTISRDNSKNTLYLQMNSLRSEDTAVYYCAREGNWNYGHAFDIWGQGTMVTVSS VL: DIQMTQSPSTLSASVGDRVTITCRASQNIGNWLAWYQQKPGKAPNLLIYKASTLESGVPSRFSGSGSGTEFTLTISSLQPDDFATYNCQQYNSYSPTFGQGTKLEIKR	1.72e-10

// next item, IC50 (M), CellTiter-Glo cytotoxicity, MFM-223 cells, 6 days requested
Ask: Any idea what IC50 (M), CellTiter-Glo cytotoxicity, MFM-223 cells, 6 days was measured for mAb1-maytansinoid 1ALP (antibody, V domains shown, maytansinoid 1ALP (mc-VC-PAB-NMe-C3-May) linker-payload conjugated; residues not stated in Example 5; DAR 2.5 per antibody, it is written on the heavy chain only for want of a better place) VH: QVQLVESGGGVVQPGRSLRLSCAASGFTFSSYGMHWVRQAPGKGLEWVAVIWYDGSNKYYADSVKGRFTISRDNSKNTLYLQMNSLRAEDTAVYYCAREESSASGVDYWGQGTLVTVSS VL: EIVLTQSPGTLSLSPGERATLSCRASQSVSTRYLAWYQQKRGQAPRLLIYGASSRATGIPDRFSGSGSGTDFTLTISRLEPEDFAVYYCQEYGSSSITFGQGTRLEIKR ?
Reply: 2.14e-10
